We begin with a simple list: items and their reported half-life (t1/2).
- assayTarget: T1, phosphorylated human tau protein (human, UniProt P10636-8 1-441, limits assumed, S422 phosphorylation)
- T1 construct: also called pTau
- T1 sequence (P10636 other isoform, or with tags, fused parts or gaps limits assumed): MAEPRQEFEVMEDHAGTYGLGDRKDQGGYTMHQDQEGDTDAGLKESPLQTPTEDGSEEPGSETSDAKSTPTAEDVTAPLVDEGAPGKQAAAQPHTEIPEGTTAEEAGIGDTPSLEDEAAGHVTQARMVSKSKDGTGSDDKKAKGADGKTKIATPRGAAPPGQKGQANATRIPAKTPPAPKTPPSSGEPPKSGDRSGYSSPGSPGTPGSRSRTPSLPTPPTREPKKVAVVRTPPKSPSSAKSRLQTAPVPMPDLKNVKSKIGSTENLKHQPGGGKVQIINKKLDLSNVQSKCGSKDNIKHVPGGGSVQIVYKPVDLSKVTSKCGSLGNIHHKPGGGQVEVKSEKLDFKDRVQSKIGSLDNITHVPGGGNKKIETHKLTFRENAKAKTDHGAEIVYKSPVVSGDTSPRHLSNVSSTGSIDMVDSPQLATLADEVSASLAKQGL
- procedureDetails: SPR (BIAcore), captured antibody
measuredParameter: half-life (t1/2)

- Rb86 variant: HC 001_IGHV3_23_04 / LC 002--IMGT_hVK_4_1 (antibody, V domains shown) VH: QQLVESGGGLVQPGGSLRLSCAASGFSLSSNAINWVRQAPGKGLEWVGYIAVSGNTYYASWAKGRFTISRDNSKNTLYLQMNSLRAEDTAVYYCGKSNIWGQGTLVTVSS VL: AQVMTQSPDSLAVSLGERATINCKSSQSVRTNKLAWFQQKPGQPPKRLIYSASTLDSGVPDRFSGSGSGTDFTLTISSLQAEDVAVYYCLGYFDCSIADCVAFGGGTKVEIK: 5.36 min
- Rb86 variant: HC 001_IGHV3_23_04 / LC Rb86 (antibody, V domains shown) VH: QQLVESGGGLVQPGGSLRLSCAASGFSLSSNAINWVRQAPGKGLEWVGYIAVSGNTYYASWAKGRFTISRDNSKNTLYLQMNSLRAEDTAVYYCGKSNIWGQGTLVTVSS VL: AQVLTQTTSPVSAAVGSTVTISCQSSQSVRTNKLAWFQQKPGQPPKRLIYSASTLDFGVPSRFSASGSGTQFTLTISDVQCDDAATYYCLGYFDCSIADCVAFGGGTEVVVK: 12.7 min
- Rb86 variant: HC 001_IGHV3_23_04 / LC 017--IMGT_hVK_1_17 (antibody, V domains shown) VH: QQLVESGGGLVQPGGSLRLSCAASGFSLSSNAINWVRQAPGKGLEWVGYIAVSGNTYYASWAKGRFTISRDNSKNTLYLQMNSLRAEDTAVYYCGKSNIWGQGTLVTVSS VL: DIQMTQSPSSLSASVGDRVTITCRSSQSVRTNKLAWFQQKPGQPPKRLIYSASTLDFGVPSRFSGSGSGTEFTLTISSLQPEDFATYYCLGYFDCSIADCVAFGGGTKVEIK: 5.26 min

Data origin: patent US20170204182A1
